Where these numbers come from: patent US20240382605A1

# Assayed target: T1, hCD71-Nluc fusion protein (human, UniProt P02786 1-760)
# T1 construct: whole, on cells; Used as crude membrane fractions of HEK293 cells stably expressing hCD71-Nluc; also called human transferrin receptor, CD71, fused to NanoLuc; not shown: NanoLuc (ProMega) luciferase joined through its N-terminal Val
# T1 sequence (P02786 other isoform, or with tags, fused parts or gaps): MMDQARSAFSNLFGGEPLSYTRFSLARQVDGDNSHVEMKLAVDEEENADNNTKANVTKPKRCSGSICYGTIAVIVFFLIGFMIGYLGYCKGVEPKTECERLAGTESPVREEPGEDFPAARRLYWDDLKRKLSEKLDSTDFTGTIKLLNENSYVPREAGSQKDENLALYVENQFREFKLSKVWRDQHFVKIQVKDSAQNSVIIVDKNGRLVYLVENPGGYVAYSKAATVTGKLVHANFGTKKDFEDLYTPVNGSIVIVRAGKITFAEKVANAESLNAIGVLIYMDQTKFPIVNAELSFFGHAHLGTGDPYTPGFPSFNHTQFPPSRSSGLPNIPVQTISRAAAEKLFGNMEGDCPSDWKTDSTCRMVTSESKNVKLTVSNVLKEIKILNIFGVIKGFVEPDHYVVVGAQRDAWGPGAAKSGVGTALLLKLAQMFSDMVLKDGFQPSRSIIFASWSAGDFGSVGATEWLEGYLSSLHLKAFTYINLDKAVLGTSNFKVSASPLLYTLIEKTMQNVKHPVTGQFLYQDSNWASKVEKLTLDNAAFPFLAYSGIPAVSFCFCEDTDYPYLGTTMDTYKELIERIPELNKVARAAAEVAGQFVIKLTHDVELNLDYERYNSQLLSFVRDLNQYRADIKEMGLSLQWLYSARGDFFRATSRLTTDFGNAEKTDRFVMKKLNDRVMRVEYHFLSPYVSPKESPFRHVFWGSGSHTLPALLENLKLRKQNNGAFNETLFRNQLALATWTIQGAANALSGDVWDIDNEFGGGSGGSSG
# Assay notes: nanoBRET competition, tracer BCY17871-1598988 60 nM, HEK293 hCD71-Nluc membranes
Starred links: 1 amine or outer side, 2 acyl side, 3 side chain; linkers in the order of their positions; H or OH if unused. Positions of bridges follow the written chain, without caps; N, C: chain ends. Non-standard residues stand in square brackets, D forms with d. TATB = O=C(C[*:1])N1CN(C(=O)C[*:2])CN(C(=O)C[*:3])C1; Lys(N3) = [N-]=[N+]=NCCCC[C@H](N)C(=O)O
Recorded pKi, one value per entry.
Interpret pKi as the negative base-10 log of the concentration measured in mol/L.

Example binders with recorded pKi:
Binder	pKi
CPXDAYLGCXSYCX (not fully specified; as printed CP[HyP]DAYLGC[tBuGly]SYC[K(N3)]: N-terminal acetyl; C-terminal amide; three Cys bound to TATB scaffold; [HyP] 4-trans-hydroxy-L-proline at 3; [tBuGly] t-butyl glycine at 10; [K(N3)] 6-azido lysine at 14 joined via BCN linker to oligonucleotide 1590463, also called Compound No. 1590463 conjugated to BCY17896) [1590463-BCY17896]	9.00
Ac-CS[Lys(N3)]DAHLGCISYC-NH2 (linker 1-9-13 via TATB; not fully specified (residue 3); printed as CS[K(N3)]DAHLGCISYC; also: azide of K(N3) in loop clicked via BCN linker to oligonucleotide 1590463, also called Compound No. 1590463 conjugated to BCY17904) [1590463-BCY17904]	8.30
CSPDAHLGCISYCEXWX (not fully specified; as printed CSPDAHLGCISYCE[dP]W[K(N3)]: N-terminal acetyl; C-terminal amide; three Cys bound to TATB scaffold; [dP] D-proline at 15; [K(N3)] 6-azido lysine at 17 joined via BCN linker to oligonucleotide 1590463, also called Compound No. 1590463 conjugated to BCY17890) [1590463-BCY17890]	8.70

For the next question, use this binder.
Prompt: Field request: pKi | item: Ac-C[Lys(N3)]PDAHLGCISYC-NH2 (linker 1-9-13 via TATB; not fully specified (residue 2); printed as C[K(N3)]PDAHLGCISYC; also: azide of K(N3) in loop clicked via BCN linker to oligonucleotide 1590463, also called Compound No. 1590463 conjugated to BCY17903) [1590463-BCY17903]
Completion: 7.62
